tested on: rice (Oryza sativa) seeds, germ; experiment: Inhibition of germ elongation of rice seeds; settings: 20 µg/mL; 48 h, 25 °C, dark; mean of triplicate ± SD
quantityKind: Inhibition Ratio (%) Seed Germ Var. Zhonghua 11

[[record]]
compound = "CC[C@@]1(C)Oc2cc(ccc2O)[C@@H](O)[C@H](NC)C(=O)N[C@@H](C)C(=O)N[C@@H]1C(=O)NCC(=O)O [Ustiloxin F (5), ustiloxin F]"
measured = "9.36%"

[[record]]
compound = "CC[C@@]1(C)Oc2cc(c([S+]([O-])C[C@@H](O)C[C@H](N)C(=O)O)cc2O)[C@@H](O)[C@H](NC)C(=O)N[C@@H](C)C(=O)N[C@@H]1C(=O)NCC(=O)O (stereo partly drawn) [Ustiloxin B (3), ustiloxin B]"
measured = "12.02%"

[[record]]
compound = "CC[C@@]1(C)Oc2cc(c([S+]([O-])C[C@@H](O)C[C@H](N)C(=O)O)cc2O)[C@@H](O)[C@H](NC)C(=O)N[C@@H](C(C)C)C(=O)N[C@@H]1C(=O)NCC(=O)O (stereo partly drawn) [Ustiloxin A (2), ustiloxin A]"
measured = "26.59%"

